- TEST_TARGET: T1, mouse B7-H4 (recombinant, BLI) (mouse, UniProt Q7TSP5 29-256, limits assumed)
- T1 construct: also called murine B7-H4
- T1 sequence: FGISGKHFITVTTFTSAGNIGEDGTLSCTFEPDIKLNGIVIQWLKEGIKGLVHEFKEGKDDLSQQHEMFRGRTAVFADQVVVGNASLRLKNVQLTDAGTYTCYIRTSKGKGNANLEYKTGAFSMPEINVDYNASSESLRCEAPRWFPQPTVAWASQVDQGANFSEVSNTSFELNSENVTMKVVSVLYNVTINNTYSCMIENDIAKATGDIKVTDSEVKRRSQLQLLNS
- METHOD_NOTES: BLI, antigen on Protein A tips;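 further: Anti-B7-H4 antibodies assessed for affinity toward the B7-H4 extracellular domain using biolayer interferometry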
kon for assorted binders
Respond numerically; units are M⁻¹ s⁻¹ and should not be typed.

query: Which value of kon has been reported for B7-H4 antibody 20501 (antibody, human IgG1, kappa, V domains shown, human IgG1/kappa) VH: QLQLQESGPGLVKPSETLSLTCTVSGGSIKSGSHYWGWIRQPPGKGLEWIGNIYYSGSTYYNPSLKSRVTISVDTSKNQFSLKLSSVTAADTAVYYCAREGSYPNWLDPWGQGTLVTVSS VL: EIVMTQSPATLSVSPGERATLSCRASQSVSSNLAWYQQKPGQAPRLLIYGASTRATGIPARFSGSGSGTEFTLTISSLQSEDFAVYYCQQYHSFPFTFGGGTKVEIKR in the records?
result: 1.12e+06

query: Which value of kon has been reported for B7-H4 antibody 20506 (antibody, V domains shown, human IgG1/kappa) VH: QLQLQESGPGLVKPSETLSLTCTASGGSISHGGYYWSWIRQHPGKGLEWIGNIYYSGSTYYNPSLKSRVTMSVDTSKNQFSLKLSSVTAADTAVYYCARESSTISADFDLWGRGTLVTVSS VL: DIQMTQSPSSVSASVGDRVTITCRASQGISRWLAWYQQKPGKAPKLLIYAASSLQSGVPSRFSGSGSGTDFTLTISSLQPEDFATYYCQQAHTFPYTFGGGTKVEIKR in the records?
result: 466000

query: Which value of kon has been reported for B7-H4 antibody 22208 (antibody, human IgG1, kappa, V domains shown, human IgG1/kappa) VH: QLQLQESGPGLVKPSETLSLTCTVSGGSIKSGSHYWGWIRQPPGKGLEWIGNIYYSGSTYYNPSLKSRVTMSVDTSKNQFSLKLSSVTAADTAVYYCAREGSYPNWFDPWGQGTLVTVSS VL: EIVMTQSPATLSVSPGERATLSCRASQSVSTNLAWYQQKPGQAPRLLIYDASARVTGIPARFSGSGSGTEFTLTISSLQSEDFAVYYCQQYHSFPFTFGGGTKVEIKR in the records?
result: 99500

query: Which value of kon has been reported for B7-H4 antibody 20502.1 (antibody, human IgG1, kappa, V domains shown, human IgG1/kappa) VH: QLQLQESGPGLVKPSETLSLTCTVSGGSIKSGSYYWGWIRQPPGKGLEWIGNIYYSGSTYYNPSLKSRVTISVDTSKNQFSLKLSSVTAADTAVYYCAREGSYPNQFDPWGQGILVTVSS VL: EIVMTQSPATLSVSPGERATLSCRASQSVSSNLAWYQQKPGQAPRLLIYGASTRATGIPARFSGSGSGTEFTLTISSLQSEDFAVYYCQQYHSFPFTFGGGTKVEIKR in the records?
result: 520000
